The reported numbers originate from patent US20200292534A1.

- MEASURED ON: T1, NLpoly11S
- T1 chain: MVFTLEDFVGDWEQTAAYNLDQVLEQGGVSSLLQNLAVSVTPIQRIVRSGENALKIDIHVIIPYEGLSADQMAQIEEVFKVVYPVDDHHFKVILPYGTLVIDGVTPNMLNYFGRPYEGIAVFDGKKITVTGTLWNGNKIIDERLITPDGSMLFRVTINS
- PROCEDURE SUMMARY: luminescence complementation titration, one-site specific binding fit
Parameter: pKd. Scope: all listed entries.
Interpret pKd as the negative base-10 log of the concentration measured in mol/L.

Worked cases, pKd given:
- VTGYRLFEQIL (modifications not checked) [array2.49]: 3.91
- VEGYRLFQQAL (modifications not checked) [array2.95]: 4.73
- VEGYRLFKKAL (modifications not checked) [array2.83]: 5.80
- VEGYRLFQQAS (modifications not checked) [array2.68]: 4.70
- VTGYRLFQEAL (modifications not checked) [array2.44]: 4.80
- VEGYRLFKQAL (modifications not checked) [array2.86]: 5.64

The reported pKd of the binder VEGYRLFKEIL (modifications not checked) [array2.88] was 4.75

// pKd lookup, binder = VTGYRLFKKAL (modifications not checked) [array2.29] , result: 6.56

Quick note, pKd for VEGYRLFKEEL (modifications not checked) [array2.90] landed at 4.00

Input VEGYRLFQEAS (modifications not checked) [array2.71] . Output pKd: 4.62

So, VTGYRLFQKIS (modifications not checked) [array2.10] ? Its pKd was 7.09
